System: ECa-109 cell line
assay: Phototoxic index, ratio of IC50 for dark cytotoxicity against human Eca-109 cells to IC50 for phototoxicity against human Eca-109 cells in presence of 8J/cm2 laser light irradiation
Type: functional
Catalogue of Ratio IC50 readings, one per entry.
Just the number, please.

Would you please look over these solved cases?
smiles_record: OCCOc1cccc(-c2c3nc(c(-c4cccc(OCCO)c4)c4[nH]c(c(-c5cccc(OCCO)c5)c5nc(c(-c6cccc(OCCO)c6)c6[nH]c2c2ccccc62)-c2ccccc2-5)c2ccccc42)-c2ccccc2-3)c1
measurement_name: Ratio IC50
value: 5.84
//
smiles_record: OCCOc1ccc(-c2c3nc(c(-c4ccc(OCCO)cc4F)c4[nH]c(c(-c5ccc(OCCO)cc5F)c5nc(c(-c6ccc(OCCO)cc6F)c6[nH]c2c2ccccc62)-c2ccccc2-5)c2ccccc42)-c2ccccc2-3)c(F)c1
measurement_name: Ratio IC50
value: 20.72
//
smiles_record: OCCOc1ccc(-c2c3nc(c(-c4ccc(OCCO)c(F)c4)c4[nH]c(c(-c5ccc(OCCO)c(F)c5)c5nc(c(-c6ccc(OCCO)c(F)c6)c6[nH]c2c2ccccc62)-c2ccccc2-5)c2ccccc42)-c2ccccc2-3)cc1F
measurement_name: Ratio IC50
value: 10.41

[ask] Quick one: Ratio IC50 of COc1ccc(-c2c3nc(c(-c4ccc(OC)c(O)c4)c4[nH]c(c(-c5ccc(OC)c(O)c5)c5nc(c(-c6ccc(OC)c(O)c6)c6[nH]c2c2ccccc62)-c2ccccc2-5)c2ccccc42)-c2ccccc2-3)cc1O ?
[reply] 9.61

[ask] Quick one: Ratio IC50 of OCCCOc1ccc(-c2c3nc(c(-c4ccc(OCCCO)cc4)c4[nH]c(c(-c5ccc(OCCCO)cc5)c5nc(c(-c6ccc(OCCCO)cc6)c6[nH]c2c2ccccc62)-c2ccccc2-5)c2ccccc42)-c2ccccc2-3)cc1 ?
[reply] 14.35

[ask] Quick one: Ratio IC50 of OCCOc1ccc(-c2c3nc(c(-c4ccc(OCCO)cc4)c4[nH]c(c(-c5ccc(OCCO)cc5)c5nc(c(-c6ccc(OCCO)cc6)c6[nH]c2c2ccccc62)-c2ccccc2-5)c2ccccc42)-c2ccccc2-3)cc1 ?
[reply] 8.15

[ask] Quick one: Ratio IC50 of Oc1cccc(-c2c3nc(c(-c4cccc(O)c4)c4[nH]c(c(-c5cccc(O)c5)c5nc(c(-c6cccc(O)c6)c6[nH]c2c2ccccc62)-c2ccccc2-5)c2ccccc42)-c2ccccc2-3)c1 ?
[reply] 6.41

[ask] Quick one: Ratio IC50 of COc1cc(-c2c3nc(c(-c4ccc(O)c(OC)c4)c4[nH]c(c(-c5ccc(O)c(OC)c5)c5nc(c(-c6ccc(O)c(OC)c6)c6[nH]c2c2ccccc62)-c2ccccc2-5)c2ccccc42)-c2ccccc2-3)ccc1O ?
[reply] 5.77

[ask] Quick one: Ratio IC50 of OCCCCOc1ccccc1-c1c2nc(c(-c3ccccc3OCCCCO)c3[nH]c(c(-c4ccccc4OCCCCO)c4nc(c(-c5ccccc5OCCCCO)c5[nH]c1c1ccccc51)-c1ccccc1-4)c1ccccc31)-c1ccccc1-2 ?
[reply] 6.94

[ask] Quick one: Ratio IC50 of O=[N+]([O-])c1cc(-c2c3nc(c(-c4ccc(O)c([N+](=O)[O-])c4)c4[nH]c(c(-c5ccc(O)c([N+](=O)[O-])c5)c5nc(c(-c6ccc(O)c([N+](=O)[O-])c6)c6[nH]c2c2ccccc62)-c2ccccc2-5)c2ccccc42)-c2ccccc2-3)ccc1O ?
[reply] 1.66

[ask] Quick one: Ratio IC50 of Oc1ccc(-c2c3nc(c(-c4ccc(O)c(F)c4)c4[nH]c(c(-c5ccc(O)c(F)c5)c5nc(c(-c6ccc(O)c(F)c6)c6[nH]c2c2ccccc62)-c2ccccc2-5)c2ccccc42)-c2ccccc2-3)cc1F ?
[reply] 4.97
